GI50 for assorted compounds
# Test system: SK-MEL-2
# method-description: NCI tumour cell line growth inhibition, 48 h
Calls of active or inactive are those of the source. Rule as the data show it: active = GI50 up to about 1.1 µM and inactive = higher.

{"compound": "COc1ccc(C(=O)C(c2ccc(OC)cc2)C2C(=O)Oc3ccccc32)cc1 (configuration not stated)", "GI50": "> 10 µM (inactive)"}
{"compound": "CC(=O)O[C@H]1CC[C@@]2(C)C(=CC[C@@H]3C2CC[C@]2(C)Nc4c(cnn4-c4ccccc4)CC32)C1 (some centres not stated)", "GI50": "54.6 µM (inactive)"}
{"compound": "CCSCCCC(=O)O", "GI50": "> 100 µM (inactive)"}
{"compound": "O=C(Nc1ccccc1C(=O)O)C(=Cc1ccccc1O)NC(=O)c1ccccc1", "GI50": "> 100 µM (inactive)"}
{"compound": "O=C(O)c1ccc(C2=Nc3cccc4cccc(c34)N2)cc1", "GI50": "> 100 µM (inactive)"}
{"compound": "CC(C)(C)/N=C1\\C(=O)C2(C)CCC1C2(C)C (configuration not stated)", "GI50": "> 100 µM (inactive)"}
{"compound": "COC(=O)C1=C(O)C(O)=C(C(=O)OC)C1", "GI50": "> 100 µM (inactive)"}
{"compound": "O=C(O)CCNCCCNCCC(=O)O", "GI50": "> 100 µM (inactive)"}
{"compound": "Cc1ccccc1Nc1nc2c(s1)C(=O)c1ccccc1C2=O", "GI50": "16.7 µM (inactive)"}
{"compound": "COc1ccc(C(C#N)NCCCCCCNC(C#N)c2ccc(OC)cc2)cc1 (configuration not stated)", "GI50": "> 100 µM (inactive)"}
{"compound": "COC(=O)CNC(=O)Nc1cc(N2C(=O)ON3C2C(C)(C)N(O)C3(C)C)ccc1C (configuration not stated)", "GI50": "59.4 µM (inactive)"}
{"compound": "COC(=O)C1=C(C)NC(C)=C(C(=O)OC)C1c1ccccc1NO", "GI50": "> 100 µM (inactive)"}

====

# Test system: MDA-MB-231
# method-description: NCI tumour cell line growth inhibition, 48 h
Active and inactive are the calls of the source. Rule as the data show it: active = GI50 up to about 1.1 µM and inactive = higher.
Labels: Yes = active, No = inactive

{"compound": "CCN(CC)C(=S)SS(=O)(=O)c1ccc(NC(C)=O)cc1", "label-value": "No"}
{"compound": "O=c1c2ccccc2nc(-c2ccccc2)n1/N=C/c1ccccc1[N+](=O)[O-]", "label-value": "No"}
{"compound": "O=C(c1ccc(Cl)cc1Cl)N(Cc1cccnc1)C(=S)N(Cc1cccnc1)C(=O)c1ccc(Cl)cc1Cl", "label-value": "No"}
{"compound": "CC(C)C(C/C=C1/CC(CO)(COC(=O)C(C)(C)C)OC1=O)C(C)C (configuration not stated)", "label-value": "No"}
{"compound": "CC(C)(C)c1ccc(OCCOc2ccc(C(C)(C)C)cc2N)c(N)c1", "label-value": "No"}
{"compound": "CN1CCN(CCCN)CC1", "label-value": "No"}
{"compound": "[O-][S+](c1ccc(Cl)cc1)c1ccccc1C1=NCCN1 (configuration not stated)", "label-value": "No"}
{"compound": "COC(=O)[C@H](CC(C)C)NC1=C(Cl)C(=O)c2c(O)ccc(O)c2C1=O", "label-value": "No"}
{"compound": "COC(=O)C(COC(C)=O)NC(=O)/C=C/c1ccc(O)c(OC(C)=O)c1 (configuration not stated)", "label-value": "No"}
{"compound": "CC(C)OCC(O)COc1ccc2ccc(=O)oc2c1 (configuration not stated)", "label-value": "No"}
{"compound": "CN(C)c1ccc(C=c2c3ccccc3n3c2c2c([n+]3C)CCCC2)cc1", "label-value": "Yes"}
{"compound": "N=C(N)SCC(=O)O", "label-value": "No"}
